Ref: ChEMBL document CHEMBL3046057

Each entry below carries its recorded log10 EC50.
# Test system: Leishmania panamensis
# assay-name: Leishmanicidal activity against intracellular amastigote stage of Leishmania panamensis MHOM/CO/87/UA140epir GFP infected in human U937 cells assessed as parasite viability after 72 hr by flow cytometric analysis
# Format: functional, organism-based, U-937
# test-context: Leishmania panamensis, MHOM/CO/87/UA140epir GFP, U-937, 72 h; read-out: EC50
Record value = log10 of EC50 given in mg/L.

C=CCc1ccc(OCCCCCCCCOc2cccc3ccc(C)nc23)c(OC)c1 ... 0.59
Cc1ccc2cccc(OCCCCCOc3cc(Cl)ccc3Oc3ccc(Cl)cc3Cl)c2n1 ... 0.38
Cc1ccc2cccc(OCCCOc3cc(Cl)ccc3Oc3ccc(Cl)cc3Cl)c2n1 ... 0.81
C=CCc1ccc(OCCCCCCCCCCCCOc2cccc3ccc(C)nc23)c(OC)c1 ... 1.24

Field: next molecule
In: Please indicate log10 EC50 recorded for `C[C@@H]1[C@H](O)[C@@H](C)/C=C/C=C/C=C/C=C/C=C/C=C/C=C/[C@H](O[C@@H]2O[C@H](C)[C@@H](O)[C@H](N)[C@@H]2O)C[C@@H]2O[C@](O)(C[C@@H](O)C[C@@H](O)[C@H](O)CC[C@@H](O)C[C@@H](O)CC(=O)O[C@H]1C)C[C@H](O)[C@H]2C(=O)O`
Out: -1.40

###

# assay-name: Cytotoxicity against Homo sapiens (human) U937 cells assessed as cell viability after 72 hr by MTT assay
# Type: cell-based, U-937
# test-context: U937 cells, read-out: LC50
// reported CC50 at 72 h for each item listed
Supply the numeric figure in µg/mL, leaving out any unit text.

The cases that follow already have their CC50 at 72 h on record.
C=CCc1ccc(OCCCCCOc2cccc3ccc(C)nc23)c(OC)c1 ... 10.5
C=CCc1ccc(OCCCCCCCCCCCCOc2cccc3ccc(C)nc23)c(OC)c1 ... 82.9
C=CCc1ccc(OCCCOc2cccc3ccc(C)nc23)c(OC)c1 ... 6.8
C=CCc1ccc(OCCCCOc2cccc3ccc(C)nc23)c(OC)c1 ... 31.3
C[C@@H]1[C@H](O)[C@@H](C)/C=C/C=C/C=C/C=C/C=C/C=C/C=C/[C@H](O[C@@H]2O[C@H](C)[C@@H](O)[C@H](N)[C@@H]2O)C[C@@H]2O[C@](O)(C[C@@H](O)C[C@@H](O)[C@H](O)CC[C@@H](O)C[C@@H](O)CC(=O)O[C@H]1C)C[C@H](O)[C@H]2C(=O)O ... 38.8

Kindly consider the entry below.
In: For `C=CCc1ccc(OCCCCCCCCCOc2cccc3ccc(C)nc23)c(OC)c1` , write its CC50 at 72 h.
Out: 14.1

###

# assay-name: Selectivity index, ratio of LC50 for human U937 cells to EC50 for intracellular amastigote stage of Leishmania panamensis MHOM/CO/87/UA140epir GFP infected in human U937 cells
# Assay type: toxicity, cell-based, U-937
# test-context: read-out: Selectivity Index
Recorded selectivity ratio, one value per entry.
// response body must contain only the number

Cc1ccc2cccc(OCCCCCOc3cc(Cl)ccc3Oc3ccc(Cl)cc3Cl)c2n1 ... 24.6
C[C@@H]1[C@H](O)[C@@H](C)/C=C/C=C/C=C/C=C/C=C/C=C/C=C/[C@H](O[C@@H]2O[C@H](C)[C@@H](O)[C@H](N)[C@@H]2O)C[C@@H]2O[C@](O)(C[C@@H](O)C[C@@H](O)[C@H](O)CC[C@@H](O)C[C@@H](O)CC(=O)O[C@H]1C)C[C@H](O)[C@H]2C(=O)O [AMPHOTERICIN B] ... 970
C=CCc1ccc(OCCCCCCCCCCCCOc2cccc3ccc(C)nc23)c(OC)c1 ... 4.7

Switching to the query record.
In: State its selectivity ratio for this compound: `C=CCc1ccc(OCCCCCCCCOc2cccc3ccc(C)nc23)c(OC)c1`
Out: 3.8

###

# assay-name: Selectivity index, ratio of LC50 for human U937 cells to EC50 for axenic amastigote stage of Leishmania panamensis MHOM/CO/87/UA140epir GFP
# Format: toxicity, cell-based, U-937
# test-context: U937 cells, axenic amastigotes of Leishmania panamensis, read-out: Selectivity Index
Entries and their measured selectivity ratio follow.
API note: the answer field is a bare number with no unit suffix.

The examples below pair each entry with its known result.
C=CCc1ccc(O)c(OC)c1 ... 0.7
C=CCc1ccc(OCCCCCOc2cccc3ccc(C)nc23)c(OC)c1 ... 1

Read the next record carefully.
In: Fill in selectivity ratio for record `Oc1cc(Cl)ccc1Oc1ccc(Cl)cc1Cl`
Out: 0.4

###

# assay-name: Cytotoxicity against Homo sapiens (human) U937 cells assessed as cell viability after 72 hr by MTT assay
# Type: cell-based, U-937
# test-context: U937 cells, read-out: LC50
Labelling: CC50 at 72 h reported below 10 µg/mL becomes True; at or above becomes False.

Use the examples below as a reference point.
Cc1ccc2cccc(OCCCOc3cc(Cl)ccc3Oc3ccc(Cl)cc3Cl)c2n1 ... False
Cc1ccc2cccc(OCCCCOc3cc(Cl)ccc3Oc3ccc(Cl)cc3Cl)c2n1 ... False
Cc1ccc2cccc(OCCCCCCCCCOc3cc(Cl)ccc3Oc3ccc(Cl)cc3Cl)c2n1 ... False
Cc1ccc2cccc(OCCCCCCCCOc3cc(Cl)ccc3Oc3ccc(Cl)cc3Cl)c2n1 ... False
Cc1ccc2cccc(OCCCCCCCCCCCCOc3cc(Cl)ccc3Oc3ccc(Cl)cc3Cl)c2n1 ... False

In: # strict comparison: is reported CC50 at 72 h < 10 µg/mL? input = `C=CCc1ccc(O)c(OC)c1`
Out: False

In: Threshold test, CC50 at 72 h < 10 µg/mL: `Oc1cc(Cl)ccc1Oc1ccc(Cl)cc1Cl`
Out: True

In: Is the reported CC50 at 72 h for Cc1ccc2cccc(O)c2n1 [8-HYDROXY QUINALDINE] strictly below 10 µg/mL?
Out: True

In: Does the reported CC50 at 72 h of the following molecule sit strictly below 10 µg/mL? `C=CCc1ccc(OCCCCCCCCOc2cccc3ccc(C)nc23)c(OC)c1`
Out: False

In: Does `Cc1ccc2cccc(OCCCCCOc3cc(Cl)ccc3Oc3ccc(Cl)cc3Cl)c2n1` have CC50 at 72 h strictly under 10 µg/mL?
Out: False

###

# assay-name: Selectivity index, ratio of LC50 for human U937 cells to EC50 for intracellular amastigote stage of Leishmania panamensis MHOM/CO/87/UA140epir GFP infected in human U937 cells
# Type: toxicity, cell-based, U-937
# test-context: read-out: Selectivity Index
parameter: selectivity ratio

Cc1ccc2cccc(OCCCOc3cc(Cl)ccc3Oc3ccc(Cl)cc3Cl)c2n1 ... > 31.2
C=CCc1ccc(OCCCCOc2cccc3ccc(C)nc23)c(OC)c1 ... < 1

Next, consider the following compound.
In: Using the record for `Cc1ccc2cccc(OCCCCOc3cc(Cl)ccc3Oc3ccc(Cl)cc3Cl)c2n1` , state its measured selectivity ratio.
Out: > 2

###

# assay-name: Selectivity index, ratio of LC50 for human U937 cells to EC50 for axenic amastigote stage of Leishmania panamensis MHOM/CO/87/UA140epir GFP
# Format: toxicity, cell-based, U-937
# test-context: U937 cells, axenic amastigotes of Leishmania panamensis, read-out: Selectivity Index
Classify: label 1 when selectivity ratio is strictly less than 1; label 0 when selectivity ratio is not.

In: Quick check: does `Cc1ccc2cccc(OCCCCCCCCCOc3cc(Cl)ccc3Oc3ccc(Cl)cc3Cl)c2n1` have selectivity ratio under 1?
Out: label 0

In: API: query returns whether the molecule falls strictly under 1 in selectivity ratio. Query: `Cc1ccc2cccc(OCCCCCCCCCCCCOc3cc(Cl)ccc3Oc3ccc(Cl)cc3Cl)c2n1`
Out: label 0

In: Confirm or reject: selectivity ratio of `Cc1ccc2cccc(OCCCOc3cc(Cl)ccc3Oc3ccc(Cl)cc3Cl)c2n1` lies strictly below 1
Out: label 0

In: Find out if reported selectivity ratio for Cc1ccc2cccc(O)c2n1 [8-HYDROXY QUINALDINE] is less than 1
Out: label 0

In: Is the reported selectivity ratio for `Cc1ccc2cccc(OCCCCOc3cc(Cl)ccc3Oc3ccc(Cl)cc3Cl)c2n1` strictly below 1?
Out: label 0

In: State whether 1 exceeds selectivity ratio recorded for `C=CCc1ccc(OCCCCCCCCCOc2cccc3ccc(C)nc23)c(OC)c1` .
Out: label 1

In: Say whether its selectivity ratio is strictly beneath 1. Entry: `C=CCc1ccc(OCCCCOc2cccc3ccc(C)nc23)c(OC)c1`
Out: label 1

In: # TODO verify selectivity ratio < 1 strictly for this molecule: `C=CCc1ccc(OCCCCCCCCOc2cccc3ccc(C)nc23)c(OC)c1`
Out: label 1

In: I wonder whether `Cc1ccc2cccc(OCCCCCOc3cc(Cl)ccc3Oc3ccc(Cl)cc3Cl)c2n1` has selectivity ratio below 1. Can you tell?
Out: label 0

In: Does the reported selectivity ratio of the following molecule sit strictly below 1? C[C@@H]1[C@H](O)[C@@H](C)/C=C/C=C/C=C/C=C/C=C/C=C/C=C/[C@H](O[C@@H]2O[C@H](C)[C@@H](O)[C@H](N)[C@@H]2O)C[C@@H]2O[C@](O)(C[C@@H](O)C[C@@H](O)[C@H](O)CC[C@@H](O)C[C@@H](O)CC(=O)O[C@H]1C)C[C@H](O)[C@H]2C(=O)O [AMPHOTERICIN B]
Out: label 0

In: Hello, is selectivity ratio of the following molecule strictly smaller than 1? `Cc1ccc2cccc(OCCCCCCCCOc3cc(Cl)ccc3Oc3ccc(Cl)cc3Cl)c2n1`
Out: label 0
